Reported IC50 values for the following compounds.
Test system: U937 cells (human monocytic cell line)
method_notes: Pam2CSK4-induced TNF-α secretion inhibition in PMA-differentiated U937 cells
Type: cell-based
condition_label: U-937, U937 cells differentiated with PMA, read-out: TNF-α production inhibition grade (IC50)
metric: IC50

[[record]]
structure = "CC(C)[C@@H](CS(=O)(=O)O)NC(=O)CC[C@@H](C)[C@H]1CC[C@H]2[C@@H]3CC[C@@H]4C[C@H](O)CC[C@]4(C)[C@H]3C[C@H](O)[C@]12C"
measured_on = "U937 cells (human monocytic cell line)"
observed = "≥ 2 µM"

[[record]]
structure = "CC[C@H]1[C@@H](O)[C@@H]2[C@H](CC[C@]3(C)[C@@H]([C@H](C)CCC(=O)N4CC(S(=O)(=O)O)C4)CC[C@@H]23)[C@@]2(C)CC[C@@H](O)C[C@@H]12"
measured_on = "U937 cells (human monocytic cell line)"
observed = "0.5 to 1 µM"

[[record]]
structure = "CC[C@H]1[C@@H](O)[C@@H]2[C@H](CC[C@]3(C)[C@@H]([C@H](C)CCC(=O)N[C@H](CC(C)C)CS(=O)(=O)O)CC[C@@H]23)[C@@]2(C)CC[C@@H](O)C[C@@H]12"
measured_on = "U937 cells (human monocytic cell line)"
observed = "1 to 2 µM"


----------
Reported inhibition at 1 µM values for the following molecules.
Tested on: J774A.1 (Mouse BALB/c monocyte macrophage cell line) cells
method_notes: LPS-induced TNF-α secretion inhibition in J774A.1 cells
Assay type: cell-based
condition_label: J774.A1, 1 μM compound, graded compared to taurodeoxycholic acid (positive control), read-out: TNF-α production inhibition grade
metric: inhibition at 1 µM

[[record]]
molecule = "C[C@H](CCC(=O)N[C@@H](CS(=O)(=O)O)c1ccccc1)[C@H]1CC[C@H]2[C@@H]3CC[C@@H]4CC(=O)CC[C@]4(C)[C@H]3CC[C@]12C [NC30019]"
observed = "< 20%"

[[record]]
molecule = "CC[C@H]1[C@@H](O)[C@@H]2[C@H](CC[C@]3(C)[C@@H]([C@H](C)CCC(=O)N4CCC[C@@H]4CS(=O)(=O)O)CC[C@@H]23)[C@@]2(C)CC[C@@H](O)C[C@@H]12 [NC40020]"
observed = "< 20%"

[[record]]
molecule = "C[C@H](CCC(=O)N1CCN(C)CC1)[C@H]1CC[C@H]2[C@@H]3CC[C@@H]4C[C@H](O)CC[C@]4(C)[C@H]3C[C@H](O)[C@]12C [NC10019]"
observed = "< 20%"

[[record]]
molecule = "C[C@H](CCC(=O)N1CC(S(=O)(=O)O)C1)[C@H]1CC[C@H]2[C@@H]3[C@H](O)C[C@@H]4C[C@H](O)CC[C@]4(C)[C@H]3C[C@H](O)[C@]12C [NC20012]"
observed = "< 20%"

[[record]]
molecule = "C[C@H](CCC(=O)N(CCS(=O)(=O)O)C1CCCCC1)[C@H]1CC[C@H]2[C@@H]3CC[C@@H]4C[C@H](O)CC[C@]4(C)[C@H]3CC[C@]12C [NC10016]"
observed = "> 100%"

[[record]]
molecule = "CC(C)C[C@@H](CS(=O)(=O)O)NC(=O)CC[C@@H](C)[C@H]1CC[C@H]2[C@@H]3CC[C@@H]4CC(=O)CC[C@]4(C)[C@H]3CC[C@]12C [NC30030]"
observed = "< 20%"

[[record]]
molecule = "C[C@H](CCC(=O)N[C@H](CS(=O)(=O)O)c1ccccc1)[C@H]1CC[C@H]2[C@@H]3CC[C@@H]4C[C@H](O)CC[C@]4(C)[C@H]3CC[C@]12C [NC10074]"
observed = "< 20%"

[[record]]
molecule = "C[C@H](CCC(=O)N1CCC(CCS(=O)(=O)O)CC1)[C@H]1CC[C@H]2[C@@H]3CC[C@@H]4C[C@H](O)CC[C@]4(C)[C@H]3C[C@H](O)[C@]12C [NC10008]"
observed = "> 100%"

[[record]]
molecule = "C[C@H](CCC(=O)N1CCC(S(=O)(=O)O)CC1)[C@H]1CC[C@H]2[C@@H]3CC[C@@H]4C[C@H](O)CC[C@]4(C)[C@H]3C[C@H](O)[C@]12C [NC10011]"
observed = "> 100%"

[[record]]
molecule = "C[C@H](CCC(=O)NC[C@H](C)S(=O)(=O)O)[C@H]1CC[C@H]2[C@@H]3CC[C@@H]4CC(=O)CC[C@]4(C)[C@H]3CC[C@]12C [NC30022]"
observed = "20 to 50%"

